Hi there, I'd appreciate the recorded viability at 28.5 h, 10 µM for every entry that follows.
experiment: in vitro; details: human, hela cells, % viability
Numbers only, in %.

Recorded results for 2 compounds are shown here.
>  <Compound>
CCOC(=O)CSC1=NNC(C)(c2c(O)c3ccccc3n(CC)c2=O)N1 (stereo not drawn)

>  <viability at 28.5 h, 10 µM, %>
92.5

$$$$
>  <Compound>
COc1cc(/C=N/Nc2ccc(C(=O)O)cc2)cc(Br)c1O

>  <viability at 28.5 h, 10 µM, %>
95.8

$$$$

Here are 5 compounds. What values of viability at 28.5 h, 10 µM were reported for them?
1. COc1cc(S(=O)(=O)NCCOc2ccc(C(=O)O)cc2)c(OC)cc1Cl
2. COc1ccc(Cc2nc(-c3ccccc3)c3ccccc3n2)cc1F
3. CCc1onc(-c2ccccc2)c1C(=O)NCCO
4. Cc1noc(NS(=O)(=O)c2ccc(NC(=O)CCN3C(=O)c4ccccc4C3=O)cc2)c1C
5. Cn1nc(-c2ccc(N3CCCCC3)c(NC(=O)COc3ccccc3)c2)c2ccccc2c1=O

[92.1, 80.2, 89.8, 96.1, 97.3]

Respectfully, I request viability at 28.5 h, 10 µM for each entry included below.
1. CCN(CC)C(=O)C1CCCN(C(=O)NC(c2ccccc2)c2ccccc2)C1 (stereo not drawn)
2. O=C(/C=C\c1ccco1)Oc1ccc(/C=N\NC(=O)c2cncc(Br)c2)cc1
3. CC(C)(C)OC(=O)N1CCN(Cc2nnc(Cc3ccccc3)o2)CC1
4. Cn1cc(-c2ncc(OCCn3cccc3)nc2N)cn1
5. O=C(c1cnc2ccccc2n1)N1CCN(CCc2ccccc2)CC1
6. O=C(O)CCCNC(=O)COc1ccccc1OCC(=O)NCCCC(=O)O

[106, 83.2, 94.1, 107, 91, 90]

Could you tell me viability at 28.5 h, 10 µM for each of these compounds? They are listed below.
1. CN(C)c1ccc(-c2nccnc2NS(=O)(=O)c2cccs2)cc1
2. CC(C(=O)Nc1ccc2c(c1)OCO2)N(c1ccc(Cl)cc1)S(C)(=O)=O (stereo not drawn)

1. 90.5
2. 89.5

// input: 3 compounds below; output: viability at 28.5 h, 10 µM for each
1. COCc1cc(=O)[nH]c(N2CCN(Cc3ccccc3)CC2)n1
2. CCOc1cc(C#N)cc(I)c1OCC(=O)O
3. O=C(CSc1nnc(-c2ccc(Cl)cc2)n1-c1ccccc1)N/N=C/c1ccco1

88.4
96.9
91.6

---

assay: in vitro; settings: human, hela cells, % viability
Assignment: determine reported viability at 28.5 h, 10 µM for the given compounds.
Reply with the number and its unit after it.

Some compounds with recorded viability at 28.5 h, 10 µM:
>  <Compound>
CC(=O)c1ccc(NC(=O)O[C@@H]2CO[C@H]3[C@@H]2OC[C@@H]3NC(=O)C2CCC2)cc1

>  <viability at 28.5 h, 10 µM>
89.3%

$$$$
>  <Compound>
CC(CCc1ccccc1)NC(=O)C(C)Sc1nnc(-c2cccs2)n1C1CC1 (stereo not shown)

>  <viability at 28.5 h, 10 µM>
89.5%

$$$$
>  <Compound>
CCOC(=O)c1cccc(S(=O)(=O)NC(C)Cn2cncn2)c1 (stereo not shown)

>  <viability at 28.5 h, 10 µM>
95.9%

$$$$

Hi! Can you tell me viability at 28.5 h, 10 µM for each of these compounds?
1. O=C(CN1CCc2c([nH]c3ccccc23)C12CCN(Cc1ccc(F)cc1)C2)Nc1ccccc1 (stereo not shown)
2. Cc1cc(C)nc(NC(=O)c2cccc(Cl)c2)n1
3. N#Cc1cnn2c(O)cc(Cc3ccccc3)nc12
4. CCOC(=O)CCSc1c(CC)c(C)nc2ccccc12 [CBK153457T]

1: 96%; 2: 90%; 3: 110%; 4: 93.5%

Go through the items and report each one's viability at 28.5 h, 10 µM.
1. Cc1cc(C)c2c(OCC(=O)N(C)CC(=O)NC(C)C)nn(C)c2n1
2. CS(=O)(=O)N(Cc1ccc(Cl)cc1)c1ccc(C(=O)Nc2ccccc2C(F)(F)F)cc1
3. CN(C)C(c1ccccc1)c1nnnn1C1CCCCC1 (stereo not shown)
4. CC1CCc2c(sc3ncnc(OCC(=O)N4CCCCC4)c23)C1 (stereo not shown)
5. CN(C)Cc1ccc2nc(C(F)(F)F)cc(SCCC(=O)O)c2c1 [CBK149715T]

84.1%
101%
105%
87.5%
91.4%

Here are 4 compounds. What values of viability at 28.5 h, 10 µM were reported for them?
1. O=P(O)(CNCc1ccccc1)CNCc1ccccc1 [CBK261604C]
2. COc1ccccc1CN(C)C(C)C(=O)Nc1ccc(S(N)(=O)=O)cc1 (stereo not shown)
3. Cc1cc(C)nc(NCCC(=O)O)n1
4. COc1ccc(OC)c(S(=O)(=O)N2CCCC(C(=O)O)C2)c1 (stereo not shown)

["118%", "90.1%", "89.1%", "95%"]

Okay, here is my list. What is viability at 28.5 h, 10 µM for each of these?
1. Cc1ccc(OCCNC(=O)NC(=O)C2CCN(C)CC2)c2c1CCC2
2. COCC(=O)N[C@H]1C[C@@H](Cc2cc(C(C)(C)C)on2)C1(C)C
3. Cc1ccccc1-c1ccccc1CC1(C(=O)N(C)C)CCN(C(=O)C2CC=CCC2)CC1 (stereo not shown)
4. O=C1CC(c2ccc(C(=O)O)cc2)c2c(-c3ccc(Cl)cc3)n[nH]c2N1 (stereo not shown)

1: 115%; 2: 106%; 3: 97.2%; 4: 97%

Each compound below has a reported value. Please supply its viability at 28.5 h, 10 µM.
1. OC1(CN2CCCC2)COCCN(c2nnc(-c3ccccc3)s2)C1 (stereo not shown)
2. CC1CCc2c(sc3ncnc(SCC(=O)N4CCOCC4)c23)C1 (stereo not shown)
3. O=C(CO/N=C\c1cccc([N+](=O)[O-])c1)Nc1ccccc1C(=O)O
4. O=C(CC1SC(N2CCOCC2)=NC1=O)Nc1cccc(C(=O)O)c1 (stereo not shown)
5. CN(C)CCOCCS(=O)(=O)c1ccc(N2CCC(c3ccc(Cl)cc3)=N2)cc1
6. O=C(Cn1c(NCCO)nc2ccccc21)C12CC3CC(CC(C3)C1)C2 [CBK262129B]
7. CC(C)(C)C(=O)NC(N(Cc1ccccc1)Cc1ccccc1)C(Cl)(Cl)Cl (stereo not shown)
8. CCOC(=O)C1CCN(C(=O)c2c(-c3ccccc3)noc2C)CC1

1: 97.5%; 2: 105%; 3: 91.7%; 4: 101%; 5: 114%; 6: 85.4%; 7: 97.7%; 8: 86.3%

Can you give me viability at 28.5 h, 10 µM for all of these, one by one?
1. NS(=O)(=O)c1ccc(CCNC(=O)c2ccccc2Oc2ccccc2)cc1
2. COc1cc(CNc2nc(-c3cccc4ccccc34)cn3ccnc23)cc(OC)c1OC
3. O=C1N/C(=N/c2cccc(O)c2)S/C1=C1\C(=O)Nc2ccccc21

1. 89.4%
2. 112%
3. 99.6%

---

test: in vitro; settings: human, hela cells, % viability
Result type: viability at 28.5 h, 10 µM (%)
Give bare numbers, in %.

Give measured viability at 28.5 h, 10 µM for every item shown.
1. O=C1CC(c2ccco2)Cc2c1cnn2-c1ccccc1 (stereo not drawn)
2. c1ccc(C2(CN3CCN(Cc4cccnc4)CC3)CC2)cc1
3. CC(C)(C)OC(=O)N1CCC(COc2ccc(-c3ccc(S(C)(=O)=O)cc3)nc2)CC1
4. NC1=C(c2nc3ccccc3s2)C(=O)CN1CCCN1CCOCC1
5. C#CCNC(=O)C1CCN(c2nc3ccccc3n2CC=C)CC1

95.8
117
108
109
95.4

List viability at 28.5 h, 10 µM for every entry below, keeping the order given.
1. Cc1ccc(-c2nnc(SCc3cccc4nsnc34)n2C)cc1
2. COc1cc(CNc2cc(-c3ccc4c(c3)OCO4)ncn2)cc(OC)c1OC
3. CC(=O)Nc1cc2nc3ccccc3nc2cc1NC(C)=O
4. C[C@@H]1CNCCN1c1nccnc1OCCOc1cccnc1OCCN [CBK040757T]
5. COc1cccc(-c2cncc(C3CN(Cc4cccc5ncccc45)CCO3)n2)c1 (stereo not drawn)
6. COc1ccccc1NC(=O)N1C[C@@H]2C[C@H](C1)c1c(-c3cccc(C#N)c3)ccc(=O)n1C2
7. C/C(=N\NC(=O)C(C)Sc1ncccn1)C(C)(C)C (stereo not drawn)
8. CO[C@@]12CC[C@@H](OCC3CC3)C[C@@H]1N(Cc1c(C)cnn1C)CC2

1: 92.7; 2: 98.9; 3: 92.6; 4: 88.8; 5: 102; 6: 92.8; 7: 104; 8: 97

Could you tell me viability at 28.5 h, 10 µM for each of these molecules? They are listed below.
1. O=C(Cc1ccccc1)Nc1nc(OCC(F)(F)F)cnc1-c1ccsc1
2. Oc1nccc(Oc2ccnc(Cl)n2)n1
3. O=C(Nc1ccc(Br)c2cccnc12)c1ccc(Cn2cc(Cl)cn2)o1
4. CC1CCN(c2nc(-c3ccccc3O)nc3ccccc23)CC1

[102, 98.5, 88.2, 109]

What does the record list as viability at 28.5 h, 10 µM for `CSc1nnc(-c2ccc(C(C)(C)C)cc2)n1Cc1ccco1` ? 92.1

Recorded values, source paper PMC12040169.
